system.under.test: T1, human IL12Rβ1 naturally expressed on cells (Kit225 cells, human T-cells, human blood cells) (human, UniProt P42701 24-662)
T1 construct: also called IL12 receptor beta 1
assay.procedure: flow cytometry, cell binding on human T-cells (human natural expression)
observable: EC50 (nM)
Record the value in nM, omitting the unit from your answer.

Example entries and their recorded answers appear below.
[
  {
    "binder": "mAb4 (MOR11878 with IgG1 LALA Fc variant) (antibody, V domains shown, Human IgG1 L234A L235A (LALA), expressed in HKB11 cells) VH: QVQLVESGGGVVQPGRSLRLSCAASGFTFTSYGMSWVRQAPGKGLEWVAGISYDASDTEYADSVKGRFTISRDNSKNTLYLQMNSLRAEDTAVYYCARSPDYIIDYGFDYWGRGTLVTVSS VL: AIQMTQSPSSLSASVGDRVTITCRASQGISSDLAWYQQKPGKAPKLLIYDASSLQSGVPSRFSGSGSGTDFTLTISSLQPEDFATYYCQQYWWYPFTFGQGTKVEIKR",
    "observable": "EC50",
    "measured.value": 0.038
  },
  {
    "binder": "mAb1 (MOR11873 with IgG1 LALA Fc variant) (antibody, V domains shown, Human IgG1 L234A L235A (LALA), expressed in HKB11 cells) VH: QVQLVESGGGVVQPGRSLRLSCAASGFTFTSYGMSWVRQAPGKGLEWVAGISYSGSDTEYADSVKGRFTISRDNSKNTLYLQMNSLRAEDTAVYYCARSPDYIIDYGFDYWGRGTLVTVSS VL: AIQMTQSPSSLSASVGDRVTITCRASQGISSDLAWYQQKPGKAPKLLIYDASSLQSGVPSRFSGSGSGTDFTLTISSLQPEDFATYYCQQYWIYPFTFGQGTKVEIKR",
    "observable": "EC50",
    "measured.value": 0.033
  },
  {
    "binder": "mAb10 (MOR11880 with IgG1 LALA Fc variant) (antibody, V domains shown, Human IgG1 L234A L235A (LALA), expressed in HKB11 cells) VH: QVQLVQSGAEVKKPGASVKVSCKASGYTFTGYYMHWVRQAPGQGLEWMGMIGPQHGEAIYAQKFQGRVTMTRDTSISTAYMELSRLRSDDTAVYYCARESTDSDESPFDYWGQGTLVTVSS VL: SYELTQPLSVSVALGQTARITCSGDNIRSYYVSWYQQKPGQAPVLVIYDDSDRPSGIPERFSGSNSGNTATLTISRAQAGDEADYYCQSYGSHSNFVVFGGGTKLTVLG",
    "observable": "EC50",
    "measured.value": 0.016
  }
]

Req: // query EC50 value for entry mAb7 (MOR11879 with IgG1 LALA Fc variant) (antibody, V domains shown, Human IgG1 L234A L235A (LALA), expressed in HKB11 cells) VH: QVQLVQSGAEVKKPGASVKVSCKASGYTFTGYYMHWVRQAPGQGLEWMGMIGPQHGEAIYAQKFQGRVTMTRDTSISTAYMELSRLRSEDTAVYYCARESTDSDESPFDYWGQGTLVTVSS VL: DIELTQPPSVSVSPGQTASITCSGDNIRSYYVSWYQQKPGQAPVLVIYDDSDRPSGIPERFSGSNSGNTATLTISGTQAEDEADYYCQSYGSHSNFVVFGGGTKLTVLG
Resp: 0.015

Origin of values: patent US20120082681A1
